assay: Metabolic stability in ob/ob mouse liver microsome; type: ADME; details: microsomes; further: time not given here
Decision: Stability beneath 30% gives label 1; Stability meeting or exceeding 30% gives label 0.

>>> category("Cc1cc(CNC(=O)c2ccc(N3CCC(Oc4ccccc4Cl)CC3)nn2)on1")
"label 1"
>>> category("CNC(=O)c1ccc(N2CCC(Oc3ccccc3C#N)CC2)nn1")
"label 0"
>>> category("Clc1ccccc1OC1CCN(c2ccc(-c3nnc(Cc4ccccc4)o3)nn2)CC1")
"label 1"
>>> category("CC(C)CCNC(=O)c1ccc(N2CCC(Oc3ccccc3)CC2)nn1")
"label 1"

# check: Stability < 30% for CC(C)CCNC(=O)c1ccc(N2CCC(Oc3cc(F)ccc3F)CC2)nn1
label 1

# check: Stability < 30% for Cc1nccn1-c1ccc(N2CCC(Oc3ccccc3Cl)CC2)nn1
label 0

# check: Stability < 30% for O=C(NCc1cccnc1)c1ccc(N2CCC(Oc3ccccc3Cl)CC2)nn1
label 1

# check: Stability < 30% for NC(=O)c1ccc(N2CCC(Oc3cc(F)ccc3Cl)CC2)nn1
label 0

# check: Stability < 30% for Cc1nnc(-c2ccc(N3CCC(Oc4ccccc4Cl)CC3)nn2)o1
label 0

# check: Stability < 30% for CC(C)CCNC(=O)c1ccc(N2CCC(Oc3cccc(F)c3F)CC2)nn1
label 1
